Numbers sourced from PubChem BioAssay.

test system: XIP peptide (Xip251-270) binding; assay: XIP fragment 251-270 binding compounds – biochemical, small-molecule microarray, fluorescence 635/667 nm, 0.1 µg/mL protein, primary screen (AID 1182); settings: fluorescent protein binding, 635 nm, higher = more signal, called active from +8 up or from −8 down
Note to self: class = bucket of composite z-score, per lower band (below 0.1), central band (0.1 to below 1), upper band (1 or more)

As a guide, the following entries are already answered.
MOLECULE: COc1ccc(C(=O)Nc2ccc(CN3C(=O)[C@@]4(O[C@@H](CC(=O)N5Cc6ccccc6C[C@H]5CO)[C@H]([Si](C)(C)c5ccc(OC)cc5)[C@H]4C)c4ccccc43)cc2)cc1
TESTED SYSTEM: XIP peptide (Xip251-270) binding
CAT: upper band
--
MOLECULE: COc1ccccc1CN1C(=O)c2ccccc2[C@@H](C(=O)NCC(C)C)[C@@H]1c1ccc(CO)cc1
TESTED SYSTEM: XIP peptide (Xip251-270) binding
CAT: central band
--
MOLECULE: CC(C)=CCCC(C)=CC(O)C1C=CC2C(=O)N(c3ccccc3)C(=O)C2N1Nc1ccc([N+](=O)[O-])cc1 (centres undefined)
TESTED SYSTEM: XIP peptide (Xip251-270) binding
CAT: central band
--
MOLECULE: COCCOC(=O)N1C(=O)[C@@]2(c3cc(C#CC4(O)CCCCCC4)ccc31)[C@H](C(=O)N1CCN(c3ncccn3)CC1)[C@H]1C(=O)O[C@H](c3ccccc3)[C@H](c3ccccc3)N1[C@@H]2c1ccc(O)cc1
TESTED SYSTEM: XIP peptide (Xip251-270) binding
CAT: central band

Problem: Sort [N-]=[N+]=Nc1ccccc1[C@@H]1OC(c2ccc(OCCCO)cc2)=N[C@]1(CCS(=O)(=O)c1ccccc1)C(=O)NCc1ccccc1 into one of the categories.
Solution: upper band

Problem: Sort CCOC(=O)C[C@H]1[C@H](OC(=O)Cc2ccc3c(c2)OCO3)[C@@H](NC(=O)c2ccccc2)c2cc(OCCCO)ccc2N1C(=O)c1ccccc1 into one of the categories.
Solution: lower band

Problem: Sort CN(C)CCCCNC(=O)[C@H]1C[C@H]2C(=O)N[C@@H](CCCC[N+](C)(C)C)C(=O)N2[C@H]1c1cccc(OCCO)c1 into one of the categories.
Solution: upper band

Problem: Sort C[N+](C)(C)CCCC[C@@H]1NC(=O)[C@@H]2C[C@H](C(=O)NCCCCCNC(=O)CS)[C@H](c3cccc(OCCO)c3)N2C1=O into one of the categories.
Solution: central band

Problem: Sort Cc1cc(C)c(C(O)C2C=CC3C(=O)N(c4ccccc4)C(=O)C3N2Nc2ccccc2)c(C)c1 (centres undefined) into one of the categories.
Solution: central band

Problem: Sort C=CCOc1ccc([C@@H]2CC=C(C(=O)OCC)[C@H](c3cccc(Br)c3)N2S(=O)(=O)c2ccc(C)cc2)cc1 into one of the categories.
Solution: lower band

Problem: Sort C=CCC(OC(C)=O)[C@@H]1[C@@H](N(Cc2cc3ccccc3o2)C(=O)Cc2ccc(OC)cc2)c2cc(OCCCO)ccc2N1C(=O)c1ccc(-c2ccccc2)cc1 (some centres undefined) into one of the categories.
Solution: lower band

----------
experiment: probe aLefty2 binding to arrayed compounds – biochemical, biotinylated probe, 635/667 nm fluorescence, primary screen (AID 1094); conditions: small-molecule microarray, higher = more signal;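 also: score merges spot fluorescence near 667 nm with spot signal-to-noise ratio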
Param threshold (0.07) applies to composite z-score; output fulfilled when value >= threshold, not fulfilled when value < threshold.

As a guide, the following entries are already answered.
MOLECULE: CCOC(=O)C[C@H]1[C@H](OC(=O)Cc2ccc3c(c2)OCO3)[C@@H](NC(=O)c2ccccc2)c2cc(OCCCO)ccc2N1C(=O)c1ccc2ccccc2n1
CAT: not fulfilled
//
MOLECULE: COc1cc2c(cc1OC)CN(C(=O)[C@@H]1[C@H]3C(=O)O[C@H](c4ccccc4)[C@H](c4ccccc4)N3[C@H](c3ccc(O)cc3)[C@@]13C(=O)Nc1ccc(C#CCNC(N)=O)cc13)CC2
CAT: fulfilled
//
MOLECULE: CC1CC/C=C\[C@H]2OC34C=CCN(c5ccc(Cl)cc5)C(=O)[C@H]3N(C(CO)C(C)C)C(=O)[C@]4(C)C2C(=O)O1 (stereo partly drawn)
CAT: not fulfilled
//
MOLECULE: COc1cc(C(O)C2C=CC3C(=O)N(C)C(=O)C3N2NC(=O)OC(C)(C)C)cc(OC)c1OC (stereo not drawn)
CAT: fulfilled
//
MOLECULE: COCCOC(=O)N1C(=O)[C@@]2(c3cc(C#Cc4ccc(OC)cc4)ccc31)[C@H](c1ccc(OCCO)cc1)N1[C@H](c3ccccc3)[C@H](c3ccccc3)OC(=O)[C@H]1[C@@H]2C(N)=O
CAT: fulfilled

Problem: Does composite z-score meet or surpass 0.07 for [N-]=[N+]=NCc1ccccc1C[C@]1(C(=O)NCCN2CCOCC2)N=C(c2ccc(OCCCO)cc2)O[C@H]1c1ccccc1 ?
Solution: not fulfilled

Problem: Does composite z-score meet or surpass 0.07 for COCCCNC(=O)[C@]1(CCS(=O)(=O)c2ccccc2)N=C(c2ccc(OCCCO)cc2)O[C@@H]1c1ccccc1 ?
Solution: fulfilled

Problem: Does composite z-score meet or surpass 0.07 for Cc1ccccc1C(O)C1C=CC2C(=O)N(Cc3ccccc3)C(=O)C2N1n1cnnc1 (stereo not drawn) ?
Solution: fulfilled

Problem: Does composite z-score meet or surpass 0.07 for [N-]=[N+]=NCc1ccccc1C[C@@]1(C(=O)NCCN2CCOCC2)N=C(c2ccc(OCCCO)cc2)O[C@@H]1c1ccccc1CN=[N+]=[N-] ?
Solution: fulfilled

Problem: Does composite z-score meet or surpass 0.07 for CC(C)CN1C(=O)[C@@]2(Cc3ccccc31)c1ccccc1C(=O)N(Cc1ccccc1)[C@H]2c1ccc(CO)cc1 ?
Solution: not fulfilled

Problem: Does composite z-score meet or surpass 0.07 for COC(=O)[C@@]1(Cc2ccccc2)[C@H]2c3cc(C(=O)N4CCCC4)n(Cc4ccccc4)c3C[C@H]2CN1C(=O)c1ccccc1 ?
Solution: fulfilled
